Reported IC50 is given for each of the following compounds.
- study_target: AXL (human catalytic domain) (Homo sapiens)
- Construct: purchased Upstate Ltd. 14-512
- Sequence (P30530 473-894): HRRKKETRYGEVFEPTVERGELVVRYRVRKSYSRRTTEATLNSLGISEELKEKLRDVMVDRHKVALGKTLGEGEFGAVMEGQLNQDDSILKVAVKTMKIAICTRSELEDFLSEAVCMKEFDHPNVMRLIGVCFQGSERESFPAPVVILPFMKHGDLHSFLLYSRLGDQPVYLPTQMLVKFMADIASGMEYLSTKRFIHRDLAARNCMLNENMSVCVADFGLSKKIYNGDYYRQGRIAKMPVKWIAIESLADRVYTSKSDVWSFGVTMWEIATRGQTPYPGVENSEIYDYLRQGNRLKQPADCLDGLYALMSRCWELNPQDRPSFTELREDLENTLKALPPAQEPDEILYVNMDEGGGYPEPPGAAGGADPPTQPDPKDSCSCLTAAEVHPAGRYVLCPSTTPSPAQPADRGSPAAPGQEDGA
- assay_text: AXL (human catalytic domain) Enzyme Activity Assay (IMAP fluorescence polarisation)
- Type: biochemical
- conditions_used: further data set (WW-001 through WW-169, XX-001 through XX-469, YY-001 through YY-016, ZZ-001 through ZZ-003); 150 μM ATP

{"compound_structure_string": "COc1ccc(-c2cccc3nc(NC(=O)C4CC4)nn23)c(OC)c1", "study_target": "AXL (human catalytic domain) (Homo sapiens)", "IC50": "1000 to 10000 nM"}
{"compound_structure_string": "CCCn1cc(-c2cccc3nc(Nc4ccc(OCCN5CCCC5)cc4)nn23)cn1", "study_target": "AXL (human catalytic domain) (Homo sapiens)", "IC50": "≤ 100 nM"}
{"compound_structure_string": "Clc1ccc(Cn2cc(-c3cccc4nc(Nc5ccc(OCCN6CCCC6)cc5)nn34)cn2)cc1", "study_target": "AXL (human catalytic domain) (Homo sapiens)", "IC50": "≤ 100 nM"}
{"compound_structure_string": "CCN(CC)CCOc1cc(Nc2nc3cccc(-c4ccc(OC)cc4)n3n2)ccn1", "study_target": "AXL (human catalytic domain) (Homo sapiens)", "IC50": "≤ 100 nM"}
{"compound_structure_string": "C=Cn1cc(-c2cccc3nc(Nc4ccc(OCCN5CCCC5)cc4)nn23)cn1", "study_target": "AXL (human catalytic domain) (Homo sapiens)", "IC50": "100 to 1000 nM"}
{"compound_structure_string": "N#CCCn1cc(-c2cccc3nc(Nc4ccc(OCCN5CCCC5)cc4)nn23)cn1", "study_target": "AXL (human catalytic domain) (Homo sapiens)", "IC50": "100 to 1000 nM"}
{"compound_structure_string": "Cc1ccc(-c2nccc3nc(Nc4ccc(OCCN5CCCC5)cc4)nn23)cc1F", "study_target": "AXL (human catalytic domain) (Homo sapiens)", "IC50": "≤ 100 nM"}
{"compound_structure_string": "Cn1cc(-c2ccc(-c3cccc4nc(Nc5ccc(OCCN6CCCC6)cc5)nn34)cc2)cn1", "study_target": "AXL (human catalytic domain) (Homo sapiens)", "IC50": "100 to 1000 nM"}
{"compound_structure_string": "COc1ccc(-c2cccc3nc(Nc4ccc(S(N)(=O)=O)cc4)nn23)cc1", "study_target": "AXL (human catalytic domain) (Homo sapiens)", "IC50": "1000 to 10000 nM"}

Data provenance is patent US8431596B2.
